Please provide measured IC50 for the entries that follow.
measuredOn: T1, His-tagged, full-length PCSK9 (human, UniProt Q8NBP7 31-692)
T1 construct: The secreted protein is autocleaved into a prodomain and a catalytic/Cys-rich chain that starts at S153; also called His-PCSK9
assayProtocol: TR-FRET competition; His-PCSK9, competitor EGF(A)-Fc
Square brackets hold non-standard residues; d marks the D form. Ends that are not written are not given here. * marks the point of attachment. Trp(6-F) = N[C@@H](Cc1c[nH]c2cc(F)ccc12)C(=O)O; hArg = N=C(N)NCCCC[C@H](N)C(=O)O; Pentanoyl = CCCCC(=O)*

### Prompt Entry WNLVRIGLLR (also: further groups not given here, Structure printed only as a drawing) [Compound 127] : reported IC50 = ?
### Response ≥ 50 µM

### Prompt Could you share which IC50 value was measured for WNLVRIGLLR (also: further groups not given here, Structure printed only as a drawing) [Compound 129] ?
### Response ≥ 50 µM

### Prompt Look up IC50 for this binder: WNLVRIGLTR (also: further groups not given here, Structure printed only as a drawing) [Compound 166]
### Response ≥ 50 µM

### Prompt Form field: reported IC50 of Pentanoyl-[Trp(6-F)]NLVRIGLTR-NH2 (SMILES CCCCC(=O)N[C@@H](Cc1c[nH]c2cc(F)ccc12)C(=O)N[C@@H](CC(N)=O)C(=O)N[C@@H](CC(C)C)C(=O)N[C@H](C(=O)N[C@@H](CCCNC(=N)N)C(=O)N[C@H](C(=O)NCC(=O)N[C@@H](CC(C)C)C(=O)N[C@H](C(=O)N[C@@H](CCCNC(=N)N)C(N)=O)[C@@H](C)O)[C@@H](C)CC)C(C)C) [Compound 174]
### Response ≥ 50 µM

### Prompt What value of measured IC50 is listed for WNLV[hArg]IG-NH2 (N-terminus assumed; SMILES CC[C@H](C)[C@H](NC(=O)[C@H](CCCCNC(=N)N)NC(=O)[C@@H](NC(=O)[C@H](CC(C)C)NC(=O)[C@H](CC(N)=O)NC(=O)[C@@H](N)Cc1c[nH]c2ccccc12)C(C)C)C(=O)NCC(N)=O, also called WNLV(homoR)IG-NH2) [Compound 236] ?
### Response ≥ 50 µM

### Prompt Consider the binder shown here: WNLV[hArg]IGLLR (also: end groups and other groups only in drawing, Structure printed only as a drawing) [Compound 196] What is its recorded IC50?
### Response 7.3 µM
